- Species: Rattus norvegicus
- ASSAY_COMMENT: Open TG-GATES - Regimen: Single
- Type: toxicity, organism-based, Sprague-Dawley
- Design: regimen Single, gender Male, age 6 weeks
- MEASUREMENT_PARAMETERS: in vivo, po, 100 mg/kg, 6 h, tissue Plasma, route gavage, dose level Low
Measured DBIL accompanies every entry in the list below.

MOL_SMILES	DBIL
Cc1nnc2n1-c1ccc(Cl)cc1C(c1ccccc1Cl)=NC2	0.008 mg/dL
O=C(OC[C@H]1O[C@@H](OC(=O)c2cc(O)c(O)c(OC(=O)c3cc(O)c(O)c(O)c3)c2)[C@H](OC(=O)c2cc(O)c(O)c(OC(=O)c3cc(O)c(O)c(O)c3)c2)[C@@H](OC(=O)c2cc(O)c(O)c(OC(=O)c3cc(O)c(O)c(O)c3)c2)[C@@H]1OC(=O)c1cc(O)c(O)c(OC(=O)c2cc(O)c(O)c(O)c2)c1)c1cc(O)c(O)c(OC(=O)c2cc(O)c(O)c(O)c2)c1	0.032 mg/dL
COC(=O)C1=C(C)NC(C)=C(C(=O)OC)C1c1ccccc1[N+](=O)[O-]	0.01 mg/dL
CN/C(=N/CCSCc1nc[nH]c1C)NC#N	0.07 mg/dL
CNC(=C[N+](=O)[O-])NCCSCc1ccc(CN(C)C)o1	0.074 mg/dL

###

- Species: Rattus norvegicus
- ASSAY_COMMENT: Open TG-GATES - Regimen: Daily Repeat
- Format: toxicity, organism-based, Sprague-Dawley
- Set-up: regimen Daily Repeat, gender Male, age 6 weeks
- MEASUREMENT_PARAMETERS: in vivo, po, 300 mg/kg, […], tissue Kidney, route gavage, dose level Middle, time 14 day

COMPOUND	UNIT	KIDNEY_R
CCOc1ccc(NC(C)=O)cc1 [PHENACETIN]	g	1.2
CN/C(=N/CCSCc1nc[nH]c1C)NC#N [CIMETIDINE]	g	1.2
CNC(=C[N+](=O)[O-])NCCSCc1ccc(CN(C)C)o1 [RANITIDINE]	g	1.2
COC(=O)C1=C(C)NC(C)=C(C(=O)OC)C1c1ccccc1[N+](=O)[O-] [NIFEDIPINE]	g	1.2
Cc1nnc2n1-c1ccc(Cl)cc1C(c1ccccc1Cl)=NC2 [TRIAZOLAM]	g	1.2
O=C(OC[C@H]1O[C@@H](OC(=O)c2cc(O)c(O)c(OC(=O)c3cc(O)c(O)c(O)c3)c2)[C@H](OC(=O)c2cc(O)c(O)c(OC(=O)c3cc(O)c(O)c(O)c3)c2)[C@@H](OC(=O)c2cc(O)c(O)c(OC(=O)c3cc(O)c(O)c(O)c3)c2)[C@@H]1OC(=O)c1cc(O)c(O)c(OC(=O)c2cc(O)c(O)c(O)c2)c1)c1cc(O)c(O)c(OC(=O)c2cc(O)c(O)c(O)c2)c1 [TANNIC ACID]	g	1.3

###

- Organism: Rattus norvegicus
- ASSAY_COMMENT: Open TG-GATES - Regimen: Single
- Format: toxicity, organism-based, Sprague-Dawley
- Design: regimen Single, gender Male, age 6 weeks
- MEASUREMENT_PARAMETERS: in vivo, po, 300 mg/kg, 6 h, tissue Kidney, route gavage, dose level Middle
Let's look at some compounds and their measured KIDNEY_TOTAL.
RESULT_TYPE: KIDNEY_TOTAL (g)

MOL_SMILES	RESULT_TYPE	OBSERVED_MEASUREMENT
CNC(=C[N+](=O)[O-])NCCSCc1ccc(CN(C)C)o1	KIDNEY_TOTAL	1.9
O=C(OC[C@H]1O[C@@H](OC(=O)c2cc(O)c(O)c(OC(=O)c3cc(O)c(O)c(O)c3)c2)[C@H](OC(=O)c2cc(O)c(O)c(OC(=O)c3cc(O)c(O)c(O)c3)c2)[C@@H](OC(=O)c2cc(O)c(O)c(OC(=O)c3cc(O)c(O)c(O)c3)c2)[C@@H]1OC(=O)c1cc(O)c(O)c(OC(=O)c2cc(O)c(O)c(O)c2)c1)c1cc(O)c(O)c(OC(=O)c2cc(O)c(O)c(O)c2)c1	KIDNEY_TOTAL	1.8
COC(=O)C1=C(C)NC(C)=C(C(=O)OC)C1c1ccccc1[N+](=O)[O-]	KIDNEY_TOTAL	1.8
CN/C(=N/CCSCc1nc[nH]c1C)NC#N	KIDNEY_TOTAL	1.9
Cc1nnc2n1-c1ccc(Cl)cc1C(c1ccccc1Cl)=NC2	KIDNEY_TOTAL	1.8

Hey, just so you know, these numbers are from ChEMBL document CHEMBL3885861.
